Values were extracted from patent US20260041679A1.

- TEST_METHOD_NOTES: clinical
- CONDITION_SUMMARY: human, in vivo, 1000 mg, Tmax (plasma), Mean (SD)
PARAMETER: Tmax (h)
Give the value in h but do not write h after it.

Ask: # query: Tmax of entry CN(C)C(=N)N=C(N)N [Metformin, metformin]
Result: 2.14

----------
- TEST_METHOD_NOTES: Pharmacokinetics in subjects with varying degrees of renal function (Example 4)
- Assay type: in vivo, human
- CONDITION_SUMMARY: human, plasma, oral, 10 mg, moderate to severe renal impairment eGFR 15-59 mL/min; single 10 mg; read-out: t1/2, mean (SD) (converted)
PARAMETER: half-life (h)
Give the value in h but do not write h after it.

Ask: # query: half-life of entry CCC(=O)N[C@@H]1CCCc2c(-c3ccc4c(c3)CCC(=O)N4C)cncc21 [baxdrostat]
Result: 42.1
